Kindly state inhibition in vivo at 5 mg/kg for each of the entries shown.
System: Rattus norvegicus
Experiment: Antiallergic activity in the rat passive cutaneous anaphylaxis (PCA) model after intraperitoneal administration at a dose 5 mg/kg
Format: functional
Settings: ip
Enter your answer as a number in %; do not include the unit.

Q: // lookup inhibition in vivo at 5 mg/kg for Cc1cc2c(=O)n3cc(-c4nnn[nH]4)ccc3nc2s1
Ans: 100

Q: Repeat with Cc1cc2nc3ccc(C(=O)Nc4nn[nH]n4)cn3c(=O)c2s1
Ans: 21

Q: Queued: O=C(Nc1nn[nH]n1)c1ccc2nc3c(c(=O)n2c1)CSC3
Ans: 33

Q: Input Cc1cc2c(=O)n3cc(C(=O)Nc4nn[nH]n4)ccc3nc2s1
Ans: 25

Q: Ok, now Cc1sc(C)c2c(=O)n3cc(C(=O)Nc4nn[nH]n4)ccc3nc12
Ans: 50

Q: Another molecule: O=C(O)c1ccc2nc3c(c(=O)n2c1)SCC3
Ans: 46

###

Tested on: Rattus norvegicus
Assay: Antiallergic activity in the rat passive cutaneous anaphylaxis (PCA) model after intraperitoneal administration at a dose 5 mg/kg
Assay type: functional
Conditions: ip
Cut-off 70% on inhibition in vivo at 5 mg/kg, inclusive. At or above means yes (1); below means no (0).

Q: Evaluate O=C(Nc1nn[nH]n1)c1ccc2nc3ccsc3c(=O)n2c1 : inhibition in vivo at 5 mg/kg at minimum 70%?
Ans: yes (1)

Q: Request: O=C(O)c1ccc2nc3cscc3c(=O)n2c1
Ans: no (0)

Q: Another compound to check: Cc1sc(C)c2c(=O)n3cc(-c4nnn[nH]4)ccc3nc12
Ans: no (0)

Q: Would you kindly repeat that for O=C(Nc1nn[nH]n1)c1ccc2nc3cscc3c(=O)n2c1 ?
Ans: no (0)

Q: Now try O=c1c2c(nc3ccc(-c4nnn[nH]4)cn13)CSC2 .
Ans: yes (1)

Q: Now consider O=c1c2cscc2nc2ccc(-c3nnn[nH]3)cn12 .
Ans: yes (1)

Q: Then Cc1cc2nc3ccc(C(=O)O)cn3c(=O)c2s1 ?
Ans: no (0)

Q: Consider next the compound Cc1cc2c(=O)n3cc(C(=O)O)ccc3nc2s1 in the same way.
Ans: yes (1)

Q: Can you handle Cc1cc2nc3ccc(-c4nnn[nH]4)cn3c(=O)c2s1 next?
Ans: no (0)

Q: Same thing, different compound: O=C(O)c1ccc2nc3ccsc3c(=O)n2c1
Ans: no (0)

Source: ChEMBL document CHEMBL1122637
